For each entry below, report its Ratio of KD huOKT8.v1/KD variant for binding to huCD8 value.
# targetEntity: T1, human CD8 (as used in SPR) (human, UniProt P01732 22-182)
# T1 construct: also called huCD8
# T1 sequence (P01732 22-182): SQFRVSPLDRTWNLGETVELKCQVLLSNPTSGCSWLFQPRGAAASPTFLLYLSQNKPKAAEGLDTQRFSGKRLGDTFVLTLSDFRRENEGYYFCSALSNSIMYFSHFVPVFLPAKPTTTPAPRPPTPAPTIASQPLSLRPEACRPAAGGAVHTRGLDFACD
# testSummary: SPR
Numeric only. Scale: X

Q: What value of measured Ratio of KD huOKT8.v1/KD variant for binding to huCD8 is listed for huOKT8.v9 (Fab, V domains shown, also called OKT.v9 Fab) VH: EVQLVQSGAEVKKPGASVKVSCKASGFNIKDTYIHWVRQAPGQGLEWIGRIDPANDNTLYASKFQGRATITADTSTSTAYLELSSLRSEDTAVYYCGRGYGYYVFDHWGQGTLVTVSS VL: DVQITQSPSSLSASVGDRVTITCRTSRSISQYLAWYQEKPGKTNKLLIYSGSTLQSGIPSRFSGSGSGTDFTLTISSLQPEDFATYYCQQHNEFPVTFGQGTKVEIKR ?
Ans: 37

Q: // next record huOKT8.v15 (antibody, V domains shown, The entries as printed are a Fab heavy chain and a whole kappa light chain) VH: EVQLVQSGAEVKKPGASVKVSCKASGFNIKDTYIHWVRQAPGQGLEWIGRIDPANDNTLYARKFQGRATITADTSTSTAYLELSSLRSEDTAVYYCTRGYGYYVFDTWGQGTLVTVSS VL: DVQITQSPSSLSASVGDRVTITCRTSRSISQYLAWYQEKPGKTNKLLIYSGSTLQSGIPSRFSGSGSGTDFTLTISSLQPEDFATYYCQQVNEFPVTFGQGTKVEIKR
Ans: 210

Q: Entry huOKT8.v12 (antibody, V domains shown) VH: EVQLVQSGAEVKKPGASVKVSCKASGFNIKDTYIHWVRQAPGQGLEWIGRIDPANDNTLYASKFQGRATITADTSTSTAYLELSSLRSEDTAVYYCGRGYGYYVFDHWGQGTLVTVSS VL: DVQITQSPSSLSASVGDRVTITCRTSRSISQYLAWYQEKPGKTNKLLIYSGSTLQSGIPSRFSGSGSGTDFTLTISSLQPEDFATYYCQQVNEFPVTFGQGTKVEIK please
Ans: 73

Q: Now the same for huOKT8.v17 (antibody, V domains shown, The entries as printed are a Fab heavy chain and a whole kappa light chain) VH: EVQLVQSGAEVKKPGASVKVSCKASGFNIKDTYIHWVRQAPGQGLEWIGRIDPANDNTLYASKFQGRATITADTSTSTAYLELSSLRSEDTAVYYCGRGYGYYVFDHWGQGTLVTVSS VL: DVQITQSPSSLSASVGDRVTITCRTSRSISKYLAWYQEKPGKTNKLLIYSGSTLQSGIPSRFSGSGSGTDFTLTISSLQPEDFATYYCQQVNEFPVTFGQGTKVEIKR
Ans: 210

Q: Query huOKT8.v10 (antibody, V domains shown, The entries as printed are a Fab heavy chain and a whole kappa light chain) VH: EVQLVQSGAEVKKPGASVKVSCKASGFNIKDTYIHWVRQAPGQGLEWIGRIDPANDNTLYASKFQGRATITADTSTSTAYLELSSLRSEDTAVYYCGRGYGYYVFDHWGQGTLVTVSS VL: DVQITQSPSSLSASVGDRVTITCRTSRSISQYLAWYQEKPGKTNKLLIYSGSTLQSGIPSRFSGSGSGTDFTLTISSLQPEDFATYYCQQHNEFPPTFGQGTKVEIKR next
Ans: 18

Q: Same again, this time with huOKT8.v11 (Fab, V domains shown, also called OKT.v11 Fab) VH: EVQLVQSGAEVKKPGASVKVSCKASGFNIKDTYIHWVRQAPGQGLEWIGRIDPANDNTLYASKFQGRATITADTSTSTAYLELSSLRSEDTAVYYCGRGYGYYVFDHWGQGTLVTVSS VL: DVQITQSPSSLSASVGDRVTITCRTSRSISQYLAWYQEKPGKTNKLLIYSGSTLQSGIPSRFSGSGSGTDFTLTISSLQPEDFATYYCQQVNEFPPTFGQGTKVEIKR
Ans: 37
